Data provenance: the supplement of paper PMC10307832

Tested on: NCI-H596
experimental_protocol: relative viability (nuclei count vs DMSO), 5 days (fraction); higher = more cells survive
condition_set: first compound 50 µM

[
  {
    "compound": "O=C(O)CCCCC(CCSCc1ccccc1)SCc1ccccc1 (stereo unspecified) [CPI-613] + COc1cccc2cc(-c3nc([C@H]4CC[C@H](C(=O)O)CC4)n4ncnc(N)c34)[nH]c12 [OSI-027] (partner 0.5 µM)",
    "relative viability": 0.832
  },
  {
    "compound": "O=C(O)CCCCC(CCSCc1ccccc1)SCc1ccccc1 (stereo unspecified) [CPI-613] + Cc1cc(Nc2cc(N3CCN(C)CC3)nc(Sc3ccc(NC(=O)C4CC4)cc3)n2)n[nH]1 [Tozasertib] (partner 0.1 µM)",
    "relative viability": 0.966
  },
  {
    "compound": "O=C(O)CCCCC(CCSCc1ccccc1)SCc1ccccc1 (stereo unspecified) [CPI-613] + CS(=O)(=O)CCNCc1ccc(-c2ccc3ncnc(Nc4ccc(OCc5cccc(F)c5)c(Cl)c4)c3c2)o1 [Lapatinib] (partner 2 µM)",
    "relative viability": 1.02
  },
  {
    "compound": "O=C(O)CCCCC(CCSCc1ccccc1)SCc1ccccc1 (stereo unspecified) [CPI-613] + Nc1ncn([C@H]2C[C@H](O)[C@@H](CO)O2)c(=O)n1 [Decitabine] (partner 2 µM)",
    "relative viability": 0.98
  },
  {
    "compound": "O=C(O)CCCCC(CCSCc1ccccc1)SCc1ccccc1 (stereo unspecified) [CPI-613] + NC(=O)Nc1cc(-c2cccc(F)c2)sc1C(=O)N[C@H]1CCCNC1 [AZD7762] (partner 0.2 µM)",
    "relative viability": 1.11
  },
  {
    "compound": "O=C(O)CCCCC(CCSCc1ccccc1)SCc1ccccc1 (stereo unspecified) [CPI-613] + N=C(N)NC(=N)NCCc1ccccc1 [Phenformin] (partner 250 µM)",
    "relative viability": 0.812
  }
]

----------
Test system: NCI-H1993
experimental_protocol: relative viability (nuclei count vs DMSO), 5 days (fraction); higher = more cells survive
condition_set: first compound 15.81 µM

[
  {
    "compound": "O=C(O)CCCCC(CCSCc1ccccc1)SCc1ccccc1 (stereo not drawn) [CPI-613] + NC(=O)Nc1cc(-c2cccc(F)c2)sc1C(=O)N[C@H]1CCCNC1 [AZD7762] (partner 0.2 µM)",
    "relative viability": 0.688
  },
  {
    "compound": "O=C(O)CCCCC(CCSCc1ccccc1)SCc1ccccc1 (stereo not drawn) [CPI-613] + Cc1nc(NC(=O)N2CCC[C@H]2C(N)=O)sc1-c1ccnc(C(C)(C)C(F)(F)F)c1 [Alpelisib] (partner 2 µM)",
    "relative viability": 0.721
  },
  {
    "compound": "O=C(O)CCCCC(CCSCc1ccccc1)SCc1ccccc1 (stereo not drawn) [CPI-613] + C[C@]1(O)C[C@@H](c2nc(-c3ccc4ccc(-c5ccccc5)nc4c3)c3c(N)nccn32)C1 [Linsitinib] (partner 1 µM)",
    "relative viability": 0.671
  }
]

----------
Tested on: NCI-H2087
experimental_protocol: relative viability (nuclei count vs DMSO), 5 days (fraction); higher = more cells survive
condition_set: first compound 0.002 µM
Listing: relative viability of selected compounds

[
  {
    "compound": "CC(=O)O[C@@]12CO[C@@H]1C[C@H](O)[C@@]1(C)C(=O)[C@H](O)C3=C(C)[C@@H](OC(=O)[C@H](O)[C@@H](NC(=O)OC(C)(C)C)c4ccccc4)C[C@@](O)([C@@H](OC(=O)c4ccccc4)[C@H]21)C3(C)C [Docetaxel] + NC(=O)Nc1cc(-c2cccc(F)c2)sc1C(=O)N[C@H]1CCCNC1 [AZD7762] (partner 0.2 µM)",
    "relative viability": 0.203
  },
  {
    "compound": "CC(=O)O[C@@]12CO[C@@H]1C[C@H](O)[C@@]1(C)C(=O)[C@H](O)C3=C(C)[C@@H](OC(=O)[C@H](O)[C@@H](NC(=O)OC(C)(C)C)c4ccccc4)C[C@@](O)([C@@H](OC(=O)c4ccccc4)[C@H]21)C3(C)C [Docetaxel] + CC(=O)c1c(C)c2cnc(Nc3ccc(N4CCNCC4)cn3)nc2n(C2CCCC2)c1=O [Palbociclib] (partner 0.5 µM)",
    "relative viability": 0.135
  }
]
